Documented melting point across a set of compounds
measured.endpoint: melting point

1. COc1ccc(Br)c(O[Si](C)(C)C(C)(C)C)c1O[Si](C)(C)C(C)(C)C ... 68.9 to 69.6 °C
2. COCOc1c(OC)ccc(C(=O)c2cc(OC)c(OC)c(OC)c2)c1OCOC ... 70.2 to 71.7 °C
3. COCOc1c(OC)ccc(C(O)c2cc(OC)c(OC)c(OC)c2)c1OCOC (centres unmarked) ... 79.9 to 81.8 °C
4. COc1cccc(C=O)c1OC(C)=O ... 75.4 to 76.2 °C
5. COc1ccc(Br)c(O)c1O [Compound 7a, 1-Bromo-2,3dihydroxy-4methoxy-benzene] ... 122.3 to 124.3 °C
6. COc1cc(C(=O)c2ccc(OC)c(OC)c2OC)cc(OC)c1OC ... 124.6 to 125.9 °C
7. COc1ccc(Br)c(C=O)c1OC(C)=O ... 121.6 to 123.4 °C
8. COc1ccc(C(=O)c2cc(OC)c(OC)c(OC)c2)c(O)c1O ... 171.1 to 171.9 °C

// data source = patent US6777578B2
